meta.source: ChEMBL document CHEMBL1134944

The following compounds are shown together with reported pIC50 values.
target: cGMP-specific 3',5'-cyclic phosphodiesterase (Homo sapiens); assay: Concentration required to inhibit phosphodiesterase type 5 (PDE5) isolated from corpus cavernosum by 50% was determined
pIC50 is a log-scale quantity: -log10 of the concentration expressed in molar.

- smilesNotation: "CCn1c(=O)c2c(nc(NC3CCCC3)n2Cc2ccc(O)cc2)n(CC)c1=O"
  propertyLabel: "pIC50"
  recordedResult: 8.82

The value of pIC50 measured for the compound CCn1c(=O)c2c(nc(NC3CCCCC3)n2Cc2ccc(OC)c(F)c2)n(CC)c1=O turned out to be 9.52

The value of pIC50 measured for the compound CCn1c(=O)c2c(nc(NC3CCCCC3)n2Cc2ccc(O)cc2)n(CC)c1=O turned out to be 9.22

The value of pIC50 measured for the compound CCn1c(=O)c2c(nc(NC3CCCCC3)n2Cc2cccc(OC)c2)n(CC)c1=O turned out to be 7.00

The value of pIC50 measured for the compound CCn1c(=O)c2c(nc(NC3CCCCC3)n2Cc2ccc(OC)cc2)n(CC)c1=O turned out to be 8.59

---

target: Phosphodiesterases; PDE5 & PDE6 (Homo sapiens) (UniProt O76074+Q13956+P18545+P35913+O43924+P16499+P51160); experiment: Selectivity for PDE6 compared to PDE5.; type: protein assay
The following compounds are shown together with reported Ratio values.

- smilesNotation: "CCn1c(=O)c2c(nc(NC3CCCCC3)n2Cc2ccc(O)c(F)c2)n(CC)c1=O"
  propertyLabel: "Ratio"
  recordedResult: 364
- smilesNotation: "CCn1c(=O)c2c(nc(NC3CCCCC3)n2Cc2cccc(O)c2)n(CC)c1=O"
  propertyLabel: "Ratio"
  recordedResult: 36
- smilesNotation: "CCn1c(=O)c2c(nc(NC3CCCCC3)n2Cc2ccc(O)cc2)n(CC)c1=O"
  propertyLabel: "Ratio"
  recordedResult: 101
- smilesNotation: "CCn1c(=O)c2c(nc(NC3CCCCC3)n2Cc2ccc(OC)c(Cl)c2)n(CC)c1=O"
  propertyLabel: "Ratio"
  recordedResult: 345
- smilesNotation: "CCn1c(=O)c2c(nc(NC3CCCCC3)n2Cc2ccc3c(c2)OCO3)n(CC)c1=O"
  propertyLabel: "Ratio"
  recordedResult: 14
- smilesNotation: "CCn1c(=O)c2c(nc(NC3CCCC3)n2Cc2ccc(O)c(F)c2)n(CC)c1=O"
  propertyLabel: "Ratio"
  recordedResult: 182

The value of Ratio measured for the compound CCn1c(=O)c2c(nc(NC3CCCC3)n2Cc2ccc(O)cc2)n(CC)c1=O turned out to be 46

The value of Ratio measured for the compound CCn1c(=O)c2c(nc(NC3CCCCC3)n2Cc2ccccc2)n(CC)c1=O turned out to be 35

The value of Ratio measured for the compound CCn1c(=O)c2c(nc(NC3CCCCC3)n2Cc2ccc(OC)c(Br)c2)n(CC)c1=O turned out to be 219

---

target: cGMP-specific 3',5'-cyclic phosphodiesterase (Homo sapiens); assay: Percentage inhibition against human phosphodiesterase type 5 isolated from corpus cavernosum at 100 nM.
The following compounds are shown together with reported inhibition values.
Enter your answer as a number in %; do not include the unit.

- smilesNotation: "Cn1c(=O)c2c(nc(N[C@@H](CO)Cc3ccccc3)n2Cc2ccccc2)n(C)c1=O"
  studySystem: "cGMP-specific 3',5'-cyclic phosphodiesterase (Homo sapiens)"
  inhibition [%]: 4

Noted inhibition for CCn1c(=O)c2c(nc(NC3CCCC3)n2Cc2ccccc2)n(CC(C)C)c1=O , tested on cGMP-specific 3',5'-cyclic phosphodiesterase (Homo sapiens): 56

Noted inhibition for CCn1c(=O)c2c(nc(NC3CCCCC3)n2Cc2ccccc2)n(CC(C)C)c1=O , tested on cGMP-specific 3',5'-cyclic phosphodiesterase (Homo sapiens): 63

Noted inhibition for Cn1c(=O)c2c(nc(N[C@@H]3CCC[C@H]3O)n2Cc2ccccc2)n(C)c1=O , tested on cGMP-specific 3',5'-cyclic phosphodiesterase (Homo sapiens): 17

Noted inhibition for Cn1c(=O)c2c(nc(N[C@H](CO)c3ccccc3)n2Cc2ccccc2)n(C)c1=O , tested on cGMP-specific 3',5'-cyclic phosphodiesterase (Homo sapiens): 5

Noted inhibition for Cn1c(=O)c2c(nc(NCC3(O)CCCCC3)n2Cc2ccccc2)n(C)c1=O , tested on cGMP-specific 3',5'-cyclic phosphodiesterase (Homo sapiens): 10
